# Tested on: PPARg DBDmut IVT, anti-PPARg (DBD mutation: PPARg1 K132A/R137A, NR concentration 270 nM)
# Protocol Text: PBM binding z-score (relative to random genomic background probes); higher = stronger binding; sequences stand for … in GC…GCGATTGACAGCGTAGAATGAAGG
# reported PBM binding z-score; entries follow
Experimental Endpoint: PBM binding z-score

monomer_sequence=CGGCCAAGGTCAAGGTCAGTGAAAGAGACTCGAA observed_result=-0.532
monomer_sequence=AGAATTAGGTTATACGTAGATCAGGGAAGAAAGT observed_result=1.36
monomer_sequence=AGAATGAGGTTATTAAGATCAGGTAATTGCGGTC observed_result=0.745
monomer_sequence=ACTAGGAGGCCAAGTTTGGGTCACTCAAACAAAG observed_result=-1.06
monomer_sequence=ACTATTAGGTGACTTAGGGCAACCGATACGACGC observed_result=0.993
monomer_sequence=AGAACGAGGGCATGCTGAGTTGATAGCAGAGTAG observed_result=-0.0747
monomer_sequence=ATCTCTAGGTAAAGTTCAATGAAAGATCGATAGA observed_result=1.47
monomer_sequence=ATCGAAAGGTCGAGGAGAGTATAGAGAAAGGGAA observed_result=0.209
monomer_sequence=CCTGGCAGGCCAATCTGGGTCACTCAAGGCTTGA observed_result=-0.975
monomer_sequence=CGTCAAAGTTCAACTAAGGTAATGTAAAGCACGC observed_result=1.3
monomer_sequence=CAAACTAGGTCAAGAGGCCAAAGTCCGCTTCCCG observed_result=0.602
monomer_sequence=CGAACGAGGGCATGAGTTGAGAGCAAATGCCGAT observed_result=-0.733
monomer_sequence=TCGGGTAGGTTACCAATGGGGCATTCAGCTTTCT observed_result=-0.222
monomer_sequence=CCTAATGGGCCAAAAAGGTCATTGATGCCGATAA observed_result=-0.248
monomer_sequence=CCTATTGGGCCATCAGGTCATTGATATCAACGTT observed_result=0.0799
monomer_sequence=TCTTGTAGATCAGCAGGTTCAGAAAGCTGGCCAA observed_result=-0.791
monomer_sequence=ATATGTAGCTTAGCTGGGGTCATTCAGACTAGGC observed_result=0.695
monomer_sequence=CAAACTAGGGCAAAGGTCAAAGTCGAGCCAACCA observed_result=2.63
monomer_sequence=ATCTCTAGGTAAGACTCAGCTCAGTGAAGAACGC observed_result=1.14
